The reported measurements were obtained from ChEMBL document CHEMBL1138525.

Reported IC50 by item:
# target: P2Y purinoceptor 2 (Homo sapiens, UniProt P41231, Y198A)
# Sequence (P41231 whole entry Y198A): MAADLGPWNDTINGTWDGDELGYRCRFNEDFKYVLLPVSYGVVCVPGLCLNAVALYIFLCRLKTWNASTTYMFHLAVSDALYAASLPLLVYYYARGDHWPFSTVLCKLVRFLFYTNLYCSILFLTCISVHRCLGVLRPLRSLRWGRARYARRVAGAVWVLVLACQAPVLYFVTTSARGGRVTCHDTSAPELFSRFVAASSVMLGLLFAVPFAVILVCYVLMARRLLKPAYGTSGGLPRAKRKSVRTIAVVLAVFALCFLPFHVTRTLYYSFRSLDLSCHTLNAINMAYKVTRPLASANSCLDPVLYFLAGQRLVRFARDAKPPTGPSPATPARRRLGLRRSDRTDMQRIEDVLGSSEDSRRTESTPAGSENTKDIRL
# experiment-description: Antagonist activity at N-terminal HA epitope-tagged human P2Y2 receptor Y198A mutant expressed in human 1321N1 cells assessed as inhibition of UTP-induced calcium mobilization

>  <compound>
COc1ccc(Nc2cc(S(=O)(=O)O)c(N)c3c2C(=O)c2ccccc2C3=O)cc1

>  <IC50>
21.1 µM

$$$$

Now examine the next entry.
*Q* What value of measured IC50 is listed for Nc1c(S(=O)(=O)O)cc(Nc2ccc(Nc3nc(Cl)nc(Nc4cccc(S(=O)(=O)O)c4)n3)c(S(=O)(=O)O)c2)c2c1C(=O)c1ccccc1C2=O [RB 2] ?
*A* 9.3 µM

###

# Tested on: P2Y purinoceptor 2 (Homo sapiens), P41231 [R194H]
# Sequence (P41231 whole entry R194H): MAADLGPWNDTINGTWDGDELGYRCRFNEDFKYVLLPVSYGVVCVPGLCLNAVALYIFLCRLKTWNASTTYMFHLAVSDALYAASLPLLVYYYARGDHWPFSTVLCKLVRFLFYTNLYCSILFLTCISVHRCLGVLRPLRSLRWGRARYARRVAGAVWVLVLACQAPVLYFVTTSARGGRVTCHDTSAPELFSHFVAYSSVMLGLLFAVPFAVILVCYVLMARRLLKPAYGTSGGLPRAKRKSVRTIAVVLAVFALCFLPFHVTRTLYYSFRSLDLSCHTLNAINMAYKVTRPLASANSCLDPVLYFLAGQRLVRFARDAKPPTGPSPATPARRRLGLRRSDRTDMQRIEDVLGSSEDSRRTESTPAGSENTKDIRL
# experiment-description: Agonist activity at N-terminal HA epitope-tagged human P2Y2 receptor R194H mutant expressed in human 1321N1 cells assessed as increase in intracellular calcium level relative to carbachol
# Assay type: functional, cell-based
Listed molecules paired with reported Efficacy
Answer format: numeric, % implied, no suffix.

For orientation, consider the following solved cases.
>  <molecule>
Nc1ncnc2c1ncn2[C@@H]1O[C@H](COP(=O)(O)OP(=O)(O)OP(=O)(O)OP(=O)(O)OC[C@H]2O[C@@H](n3cnc4c(N)ncnc43)[C@H](O)[C@@H]2O)[C@@H](O)[C@H]1O [DIADENOSINE TETRAPHOSPHATE]

>  <recorded-result>
149

$$$$
>  <molecule>
O=c1ccn([C@@H]2O[C@H](COP(=O)(O)OP(=O)(O)OP(=O)(O)O)[C@@H](O)[C@H]2O)c(=O)[nH]1 [URIDINE TRIPHOSPHATE]

>  <recorded-result>
127

$$$$
>  <molecule>
O=c1ccn([C@@H]2O[C@H](COP(=O)(O)OP(=O)(O)OP(=O)(O)OP(=O)(O)OC[C@H]3O[C@@H](n4ccc(=O)[nH]c4=O)[C@H](O)[C@@H]3O)[C@@H](O)[C@H]2O)c(=O)[nH]1

>  <recorded-result>
85

$$$$

*Q* Enter reported Efficacy observed with P2Y purinoceptor 2 (Homo sapiens), P41231 [R194H] for Nc1ncnc2c1ncn2[C@@H]1O[C@H](COP(=O)(O)OP(=O)(O)OP(=O)(O)O)[C@@H](O)[C@H]1O [ADENOSINE TRIPHOSPHATE]
*A* 130

###

# System: P2Y purinoceptor 2 (Homo sapiens), P41231 [C278S]
# Sequence (P41231 whole entry C278S): as the sequence (P41231 whole entry Y198A) above, with A198Y, C278S counted along it
# experiment-description: Agonist activity at N-terminal HA epitope-tagged human P2Y2 receptor C278S mutant expressed in human 1321N1 cells assessed as increase in intracellular calcium level relative to carbachol
# Format: functional, cell-based
Calls of active or inactive are those of the source. No cut-off for these calls is given here.
assay-metric: Efficacy

>  <molecule>
O=c1ccn([C@@H]2O[C@H](COP(=O)(O)OP(=O)(O)OP(=O)(O)O)[C@@H](O)[C@H]2O)c(=O)[nH]1 [URIDINE TRIPHOSPHATE]

>  <recorded-result>
86%

$$$$
>  <molecule>
O=c1ccn([C@@H]2O[C@H](COP(=O)(O)OP(=O)(O)OP(=O)(O)OP(=O)(O)OC[C@H]3O[C@@H](n4ccc(=O)[nH]c4=O)[C@H](O)[C@@H]3O)[C@@H](O)[C@H]2O)c(=O)[nH]1

>  <recorded-result>
inactive

$$$$
>  <molecule>
Nc1ncnc2c1ncn2[C@@H]1O[C@H](COP(=O)(O)OP(=O)(O)OP(=O)(O)OP(=O)(O)OC[C@H]2O[C@@H](n3cnc4c(N)ncnc43)[C@H](O)[C@@H]2O)[C@@H](O)[C@H]1O [DIADENOSINE TETRAPHOSPHATE]

>  <recorded-result>
inactive

$$$$
>  <molecule>
Nc1ncnc2c1ncn2[C@@H]1O[C@H](COP(=O)(O)OP(=O)(O)OP(=O)(O)O)[C@@H](O)[C@H]1O [ADENOSINE TRIPHOSPHATE]

>  <recorded-result>
97%

$$$$

###

# System: P2Y purinoceptor 2 (Homo sapiens), P41231 [Y114A]
# Sequence (P41231 whole entry Y114A): as the sequence (P41231 whole entry R194H) above, with Y114A, H194R counted along it
# experiment-description: Agonist activity at N-terminal HA epitope-tagged human P2Y2 receptor Y114A mutant expressed in human 1321N1 cells assessed as increase in intracellular calcium level relative to carbachol
# Format: functional, cell-based
assay-metric: Efficacy (%)
All answers are understood in %, so give the number only.

Below are worked cases with known answers.
>  <compound>
O=c1ccn([C@@H]2O[C@H](COP(=O)(O)OP(=O)(O)OP(=O)(O)O)[C@@H](O)[C@H]2O)c(=O)[nH]1 [URIDINE TRIPHOSPHATE]

>  <assay-metric>
Efficacy

>  <recorded-result>
107

$$$$
>  <compound>
O=c1ccn([C@@H]2O[C@H](COP(=O)(O)OP(=O)(O)OP(=O)(O)OP(=O)(O)OC[C@H]3O[C@@H](n4ccc(=O)[nH]c4=O)[C@H](O)[C@@H]3O)[C@@H](O)[C@H]2O)c(=O)[nH]1

>  <assay-metric>
Efficacy

>  <recorded-result>
142

$$$$
>  <compound>
Nc1ncnc2c1ncn2[C@@H]1O[C@H](COP(=O)(O)OP(=O)(O)OP(=O)(O)OP(=O)(O)OC[C@H]2O[C@@H](n3cnc4c(N)ncnc43)[C@H](O)[C@@H]2O)[C@@H](O)[C@H]1O [DIADENOSINE TETRAPHOSPHATE]

>  <assay-metric>
Efficacy

>  <recorded-result>
128

$$$$

Now for a further compound.
*Q* Which Efficacy is listed for Nc1ncnc2c1ncn2[C@@H]1O[C@H](COP(=O)(O)OP(=O)(O)OP(=O)(O)O)[C@@H](O)[C@H]1O [ADENOSINE TRIPHOSPHATE] ?
*A* 87

###

// values below are reported EC50
# target: P2Y purinoceptor 2 (Homo sapiens, UniProt P41231, Y198A)
# experiment-description: Agonist activity at N-terminal HA epitope-tagged human P2Y2 receptor Y198A mutant expressed in human 1321N1 cells assessed as increase in intracellular calcium level
Write the answer as a number in nM, unit excluded.

*Q* Hi! What's the reported EC50 for O=c1ccn([C@@H]2O[C@H](COP(=O)(O)OP(=O)(O)OP(=O)(O)O)[C@@H](O)[C@H]2O)c(=O)[nH]1 [URIDINE TRIPHOSPHATE] on P2Y purinoceptor 2 (Homo sapiens, UniProt P41231, Y198A)?
*A* 108

*Q* Also check Nc1ncnc2c1ncn2[C@@H]1O[C@H](COP(=O)(O)OP(=O)(O)OP(=O)(O)OP(=O)(O)OC[C@H]2O[C@@H](n3cnc4c(N)ncnc43)[C@H](O)[C@@H]2O)[C@@H](O)[C@H]1O [DIADENOSINE TETRAPHOSPHATE]
*A* 335

*Q* Would you mind doing Nc1ncnc2c1ncn2[C@@H]1O[C@H](COP(=O)(O)OP(=O)(O)OP(=O)(O)O)[C@@H](O)[C@H]1O [ADENOSINE TRIPHOSPHATE] as well?
*A* 120

###

# target: P2Y purinoceptor 2 (Homo sapiens, UniProt P41231, C278S)
# Sequence (P41231 whole entry C278S): as the sequence (P41231 whole entry R194H) above, with H194R, C278S counted along it
# experiment-description: Antagonist activity at N-terminal HA epitope-tagged human P2Y2 receptor C278S mutant expressed in human 1321N1 cells assessed as inhibition of UTP-induced calcium mobilization
Reported values of IC50 for individual entries

>  <compound>
Nc1c(S(=O)(=O)O)cc(Nc2ccc(Nc3nc(Cl)nc(Nc4cccc(S(=O)(=O)O)c4)n3)c(S(=O)(=O)O)c2)c2c1C(=O)c1ccccc1C2=O [RB 2]

>  <assay-metric>
IC50

>  <recorded-result>
1050 nM

$$$$

Now for a further compound.
*Q* Entry COc1ccc(Nc2cc(S(=O)(=O)O)c(N)c3c2C(=O)c2ccccc2C3=O)cc1 : reported IC50 = ?
*A* 3440 nM

###

# Test system: P2Y purinoceptor 2 (Homo sapiens), P41231 [R177A]
# Sequence (P41231 whole entry R177A): as the sequence (P41231 whole entry R194H) above, with R177A, H194R counted along it
# experiment-description: Agonist activity at N-terminal HA epitope-tagged human P2Y2 receptor R177A mutant expressed in human 1321N1 cells assessed as increase in intracellular calcium level relative to carbachol
# Format: functional, cell-based
assay-metric: Efficacy (%)
I only need the number, in %, no unit after it.

As a guide, the following entries are already answered.
>  <compound>
O=c1ccn([C@@H]2O[C@H](COP(=O)(O)OP(=O)(O)OP(=O)(O)O)[C@@H](O)[C@H]2O)c(=O)[nH]1 [URIDINE TRIPHOSPHATE]

>  <Efficacy [%]>
133

$$$$
>  <compound>
O=c1ccn([C@@H]2O[C@H](COP(=O)(O)OP(=O)(O)OP(=O)(O)OP(=O)(O)OC[C@H]3O[C@@H](n4ccc(=O)[nH]c4=O)[C@H](O)[C@@H]3O)[C@@H](O)[C@H]2O)c(=O)[nH]1

>  <Efficacy [%]>
102

$$$$
>  <compound>
Nc1ncnc2c1ncn2[C@@H]1O[C@H](COP(=O)(O)OP(=O)(O)OP(=O)(O)O)[C@@H](O)[C@H]1O [ADENOSINE TRIPHOSPHATE]

>  <Efficacy [%]>
117

$$$$

Next, consider the following compound.
*Q* Form entry - test system: P2Y purinoceptor 2 (Homo sapiens), P41231 [R177A]; read-out: Efficacy; compound: Nc1ncnc2c1ncn2[C@@H]1O[C@H](COP(=O)(O)OP(=O)(O)OP(=O)(O)OP(=O)(O)OC[C@H]2O[C@@H](n3cnc4c(N)ncnc43)[C@H](O)[C@@H]2O)[C@@H](O)[C@H]1O [DIADENOSINE TETRAPHOSPHATE]
*A* 86
